target: CYP3A4 (Homo sapiens, UniProt P08684); settings: female, human, plasma, oral, probe midazolam, tmax (median [min‐max]), cocktail alone (day 1)
Sequence (P08684 whole entry): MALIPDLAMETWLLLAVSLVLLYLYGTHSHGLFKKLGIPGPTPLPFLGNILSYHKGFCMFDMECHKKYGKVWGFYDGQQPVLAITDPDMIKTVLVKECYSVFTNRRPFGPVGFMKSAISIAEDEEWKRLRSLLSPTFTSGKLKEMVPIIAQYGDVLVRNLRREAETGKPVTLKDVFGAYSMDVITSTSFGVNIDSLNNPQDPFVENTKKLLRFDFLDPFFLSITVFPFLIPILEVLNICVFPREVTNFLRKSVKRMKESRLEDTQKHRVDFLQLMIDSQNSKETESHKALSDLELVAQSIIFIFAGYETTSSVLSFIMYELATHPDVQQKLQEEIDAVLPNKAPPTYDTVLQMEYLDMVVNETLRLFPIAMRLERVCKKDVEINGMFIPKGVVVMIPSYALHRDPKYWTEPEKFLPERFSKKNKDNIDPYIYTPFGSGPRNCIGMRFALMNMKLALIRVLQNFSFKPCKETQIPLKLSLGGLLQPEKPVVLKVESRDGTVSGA
metric: Tmax (min)
Your answer should be a plain number; it is taken to be in min.

Prompt line: Would you mind telling me what Tmax value was observed for `Cc1ncc2n1-c1ccc(Cl)cc1C(c1ccccc1F)=NC2` ?
Response line: 31.2

====

assay: ASP8477 steady‐state plasma PK in the cocktail study; format: in vivo, human; conditions: female, human, plasma, oral, 60 mg
metric: Tmax (h)
Your answer should be a plain number; it is taken to be in h.

Prompt line: Would you mind telling me what Tmax value was observed for `O=C(Nc1ccccc1)C1CCN(C(=O)Oc2cccnc2)CC1` ?
Response line: 2
